study-target: SARS-CoV-2 spike RBD (WT) (Severe acute respiratory syndrome …, UniProt P0DTC2)
procedure-text: BLI
readout-kind: pKd
Conceptually, pKd converts a concentration in mol/L into minus its log10.

Q: For the binder A16 (antibody, V domains shown) VH: DVQLQESGPGLVKPSQSLSLTCSVTGYSITSGYYWNWIRQFPGNKLEWMGYISYDGSNNYNPSLKNRISITRDTSKNQFFLKLNSVTTEDTATYYCARFHYGSRPRYWYFDVWGTGTTVTVSS VL: DIQMTQTTSSLSASLGDRVTISCSASQGIRNYLNWYQQKPDGTVKLLIYYTSSLHSGVPSRFSGSGSGTDYSLTISNLEPEDIATYYCQQYSKLPWTFGGGTKLEIK , what pKd is on record?
Ans: 6.85

Q: Reported pKd for A24 (antibody, V domains shown) VH: DVQLQESGPGLVKPSQSLSLTCSVTGYSITSGYYWNWIRQFPGNKMEWMGYITYDGRNTYNPSPKNRLSITRDTSKNQFFLKLNSVTTEDTATYYCARCHYYGSSYAMDYWGQGTSVTVSS VL: DIVMTQSHKFMSTSVGDRVSITCKASQDVSTAVAWYRQKPGQSPKLLIYWASTRHTGVPDRFTGSGSGTDYTLTISSVQPEDLALYYCQQHYTTPLTFGAGTKLELK : what is it?
Ans: 6.69

Q: Need pKd, item B33 (antibody, V domains shown) VH: EVQLQQSGPELVKPGTSVKISCKASGYSFTGYYMNWVKQSPEKSLEWIGEINPSTGGTTYNQKFKAKATLTVDKSSSTAYMQLKSLTSEDSAVYYCARADYWGQGTTLTVSS VL: DIVLTQSPASLAVSLGQRATISCRASESVEYYVTSLMQWYQQKPGQPPKLLIYAASNVESGVPARFSGSGSGTDFSLNIHPVEEDDIAMYFCQQSREVPYTFGGGTKLEIK
Ans: 7.14

Q: Given the binder B06 (antibody, V domains shown) VH: QAYLQQSGAELVRPGASVKMSCKASGYTFTSYNMHWVKQTPRQGLEWIGAFYPGNGDTSYNQKFKGKATLTVDKSSSTAYMQLSSLTSEDSAVYFCARDGYPYYYAMDYWGQGTSVTVSS VL: DIKMTQSPSSMYASLGERVTITCKASQDINSFLSWFQQKPGKSPKTLIYRANRLVDGVPSRFSGSGSGQDYSLTISSLEYEDMGIYYCLQYDEFPWTFGGGTKLEIK , what is its reported pKd?
Ans: 6.96

Q: I'd like to know its pKd. The binder in question is B22 (antibody, V domains shown) VH: EVKLEESGGGLVQPGGSMKLSCAASGFTFSDAWMDWVRQSPEKGLEWVAEIRNKANNHAIYYAESVKGRFTISRDDSKSSVYLQMNSLRAEDTGIYYCILFLTGHFDYWGQGTTLTVSS VL: DIVMTQSQKFMSTSVGDRVSITCKASQNVRTAVVWYQEKPGQSPKTLIYLASNRHTGVPDRFTGSGSGTDFTLTISNVQSEDLADYFCLQHWNYPLTFGSGTKLEIK
Ans: 6.57

Q: Could you share which pKd value was measured for B03 (antibody, V domains shown) VH: EVQLQQSGPELVKPGASVKISCKASGYSFTGYYMNWVKQSPEKSLEWIGEINPSTGGATYNQKFKAKATLTVDKSSSTASMQLKSLTSEDSAVYYCARAAGDYWGQGTTLTVSS VL: DIVLTQSPASLAVSLGQRATISCRASESVEYYGTSLMQWYQQKPGQPPKLLIYAASNVESGVPARFSGSGSGTDFSLNIHPVEEDDIAMYFCQQSRKVPWTFGGGTKLEIK ?
Ans: 7.28

Q: Value lookup for pKd; key = B02 (antibody, V domains shown) VH: QVQLQQPGAELVKPGASVKVSCKASGYTFTSYWMHWVKQRPGQGLEWIGRIHPSDSDTNYNQKFKGKATLTVDKSSSTAYMQLSSLTSEDSAVYYCAMDWDVDYWGQGTTLTVSS VL: QIVLTQSPALMSASPGEKVTMTCSASSSVSYMYWYQQKPRSSPKPWIYLTSNLASGVPARFSGSGSGTSYSLTISSMEAEDAATYYCQQWSSNPFTFGSGTKLEIK
Ans: 6.24

Q: I have this binder here, B01 (antibody, V domains shown) VH: QVQLQQPGAELVKPGASMKVSCKASGYTFTSYWMHWVKQRPGQGLEWIGRIHPSDSDTNYNQKFKGKATLTVDKSSSTAYMQLSSLTSEDSAVYYCAIGGGRDFDYWGQGTTLTVSS VL: DVVLTQTPLSLPVNIGDQASISCKSTKSLLNSDGFTYLDWYLQKPGQSPQLLIYLFSNRFSGVPDRFSGSGSGTDFTLKISRVEAEDLGVYYCFQSNYLPWTFGGGTKLEIK , and I need its recorded pKd.
Ans: 7.73

Q: Can you look up the measured pKd of A11 (antibody, V domains shown) VH: QVQLQQPGAELVKPGTSVKLSCKASGYTFTSYWMHWVKQRPGQGLEWIGMIHPNSGNTNYNEKFKSKATLTVDKSSSTAYMQLSSLTSEDSAVYYCADLGAWFAYWGQGTLVTVSA VL: QIVLTQSPAIMSASPGEKVTMTCSASSSISYMHWYQQKPGTSPKRWIYDTSKLASGVPARFSGSGSGTSYSLTISSMEAEDAATYYCHQRSSYPWTFGGGTKLEIK for me?
Ans: 5.12

Q: Entry B21 (antibody, V domains shown) VH: EVKLEESGGGLVQPGGSMKLSCAASGFTFSDAWMDWVRQSPEKGLEWVAEIRNKANNHATYYAESVKGRFTISRDDSKSSVYLQMNSLRAEDTGIYYCTLFLTGHFDYWGQGTTLTVSS VL: DIVMTQSQKFMSTSVGDRVSITCKASQNVRTAVAWYQQKPGQSPKALIYLASNRHTGVPDRFTGSGSGTDFTLTISNVQSEDLADYFCLQHWNYPLTFGSGTKLEIK has what pKd?
Ans: 7.77
